Each recorded value in this set is attributed to PubChem BioAssay (NCI).

- System: NCI-H23 lung
- assay-text: NCI-60 one-dose screen, 48 h (100 = growth as untreated, 0 = no growth, -100 = all killed)
- condition-info: 10 µM unless noted
The panel holds about 83,000 compounds, 20% with a hit somewhere; the sample as a whole holds those more often. Active and inactive are the calls of the source. How the source made its calls: active means growth percent below 10; inactive means the rest.
measured-quantity: growth

Enquiry: Please report the recorded growth for `COc1ccncc1S(=O)(=O)NC(=O)Nc1ccc(Cl)c(Cl)c1` .
Return: 89% (inactive)

Enquiry: Please report the recorded growth for COc1ccc(C2CC(c3ccc(OC)cc3OC)=NN2c2ccc(S(N)(=O)=O)cc2)cc1 (stereo not drawn) .
Return: 90.7% (inactive)

Enquiry: Please report the recorded growth for `O=C(CCl)N(C1CCCCC1)C1CCCCC1` .
Return: 87.9% (inactive)

====

- System: HOP-62 NSCLC
- assay-text: NCI-60 one-dose screen, 48 h
- condition-info: 10 µM unless noted
The panel holds about 83,000 compounds, 20% with a hit somewhere; the sample as a whole holds those more often. Calls of active or inactive are those of the source. How the source made its calls: active means growth percent below 10; inactive means the rest.
Would you mind answering with one of these outcomes? active, inactive

Enquiry: Each molecule tested received a call. Report the one for O=C1c2c(Cl)c(Cl)c(Cl)c(Cl)c2C(=O)C2(Cl)CC=CCC12Cl (stereo unspecified) .
Return: active

Enquiry: Each molecule tested received a call. Report the one for `COc1cc(/C=C/C(=O)N2CCN(C(=O)/C=C/c3cc(OC)c(OC)c(OC)c3)CC2)cc(OC)c1OC` .
Return: inactive

Enquiry: Each molecule tested received a call. Report the one for O=S1(=O)CCC(N(/N=C/c2ccco2)c2ccccc2)C1 (stereo unspecified) .
Return: inactive

Enquiry: Each molecule tested received a call. Report the one for `COc1ccc(-c2nc(/C=C3/C(=O)Nc4ccc(F)cc43)c3ccccn23)cc1` .
Return: inactive

Enquiry: Each molecule tested received a call. Report the one for `Cc1ccc(S(=O)(=O)NCCNc2cc(-c3cn(C(C)(C)C)nc3-c3cccc(O)c3)ccn2)cc1` .
Return: inactive

Enquiry: Each molecule tested received a call. Report the one for `COc1cc([N+](=O)[O-])c2ncccc2c1O` .
Return: active

Enquiry: Each molecule tested received a call. Report the one for `O=C(CSc1nc2ccccc2[nH]1)Nc1ccc(-c2nc3ccccc3s2)c(Cl)c1` .
Return: inactive

Enquiry: Each molecule tested received a call. Report the one for O=C(CSC1CCc2ccccc21)N/N=C/c1ccccc1O (stereo unspecified) .
Return: inactive

Enquiry: Each molecule tested received a call. Report the one for `COc1ccc2[nH]c(=O)c3c4ccccc4cn3c2c1` .
Return: inactive

Enquiry: Each molecule tested received a call. Report the one for CN(CCCCCl)P(=O)(OCc1ccc([N+](=O)[O-])o1)C(F)(F)C[C@H](NC(=O)CNC(=O)c1ccc(N=[N+]=[N-])cc1)C(=O)NCCc1ccc(O)cc1 (stereo partly specified) .
Return: inactive

Enquiry: Each molecule tested received a call. Report the one for `CCCN=C1NC(=O)/C(=C/c2nc(-c3ccc(OC)cc3)n3ccccc23)S1` .
Return: inactive

Enquiry: Each molecule tested received a call. Report the one for `COc1cccc(/C=C/C(=O)Nc2cc(OC)c3c(c2)OCO3)c1` .
Return: inactive

Enquiry: Each molecule tested received a call. Report the one for `O=C(Nc1ccncc1)C(=O)c1cn(S(=O)(=O)c2ccc(Cl)cc2)c2ccccc12` .
Return: inactive

Enquiry: Each molecule tested received a call. Report the one for `COc1cc(-c2nn(-c3cccc(NC(=O)Nc4cccc(C(F)(F)F)c4)c3)cc2-c2ccncc2)ccc1Cl` .
Return: active

Enquiry: Each molecule tested received a call. Report the one for `COc1ccc(CCNC2=CC(=O)CCC2)cc1OC` .
Return: inactive

Enquiry: Each molecule tested received a call. Report the one for `CNC(=S)NNC(=O)C1CC1` .
Return: inactive

Enquiry: Each molecule tested received a call. Report the one for `C=C[C@@H]1C[C@@H]2Cc3c(C)cc(C)cc3N1O2` .
Return: inactive

Enquiry: Each molecule tested received a call. Report the one for COc1cc(C2CC(c3ccc4c(c3)OCO4)=NN2C(C)=O)cc(OC)c1OC (stereo unspecified) .
Return: inactive

Enquiry: Each molecule tested received a call. Report the one for COc1ccc(C2C=C(c3ccc(N)cc3)N=C3SC=CN32)cc1OC (stereo unspecified) .
Return: inactive

Enquiry: Each molecule tested received a call. Report the one for `N#Cc1c(-c2ccccc2)cc(-c2ccccc2)n(CC(=O)NO)c1=O` .
Return: inactive

Enquiry: Each molecule tested received a call. Report the one for `N#Cc1ccc(N2Cc3ccccc3OC3=C2C(=O)c2c(O)ccc(O)c2C3=O)cc1` .
Return: inactive

Enquiry: Each molecule tested received a call. Report the one for `COc1ccc(-c2ccc(C)n2-c2ccc(-c3nc4cc(Cl)ccc4s3)cc2)cc1` .
Return: inactive

Enquiry: Each molecule tested received a call. Report the one for NC1N=C(SCC(=O)N2CCN(c3cc4c(cc3F)c(=O)c(C(=O)O)cn4C3CC3)CC2)NC(=O)/C1=C/c1ccc(Cl)cc1 (stereo unspecified) .
Return: inactive

Enquiry: Each molecule tested received a call. Report the one for `Brc1cccc(-c2cc(-c3ccc4c(c3)OCCCO4)[nH]n2)c1` .
Return: inactive

Enquiry: Each molecule tested received a call. Report the one for `c1coc(CNc2ccnc(Nc3ccc(OCCN4CCCCC4)cc3)n2)c1` .
Return: inactive

Enquiry: Each molecule tested received a call. Report the one for `COc1ccc2[nH]c(=O)c(/C=N/Nc3nc(-c4ccccc4)cs3)c(O)c2c1` .
Return: inactive

Enquiry: Each molecule tested received a call. Report the one for `Fc1ccc(Nc2ncnc3ccc(-c4cnc5[nH]ccc5c4)cc23)cc1Cl` .
Return: inactive

Enquiry: Each molecule tested received a call. Report the one for O=c1[nH]c2ccc(Br)cc2c2c1C(c1ccc(Cl)cc1)c1c(ncn3nc(-c4ccco4)nc13)O2 (stereo unspecified) .
Return: inactive

Enquiry: Each molecule tested received a call. Report the one for `Nc1cc2c([nH]c[n+]2CC#CCCl)c(SCC#CCCl)n1` .
Return: active

Enquiry: Each molecule tested received a call. Report the one for `COc1cc(NC(=O)SC2=NCCS2)cc(OC)c1` .
Return: inactive

Enquiry: Each molecule tested received a call. Report the one for `c1ccc(-c2nnc(-c3ccccn3)s2)nc1` .
Return: inactive

Enquiry: Each molecule tested received a call. Report the one for `C=COC(=O)CCCCCCCCC` .
Return: inactive

Enquiry: Each molecule tested received a call. Report the one for `COc1cc(C(=O)/C=C/c2ccc3nc(-c4cc(F)cc(F)c4)sc3c2)cc(OC)c1OC` .
Return: inactive

Enquiry: Each molecule tested received a call. Report the one for `COc1ccc(-c2c(N)n[nH]c2-c2cc(OC)c3c(c2)OCCO3)cc1` .
Return: inactive

Enquiry: Each molecule tested received a call. Report the one for COc1ccc(C2C=C(c3ccc(Cl)cc3)N=C3SC=C(C)N32)c(Br)c1 (stereo unspecified) .
Return: inactive

Enquiry: Each molecule tested received a call. Report the one for `O=C(Nc1ccncc1)C(=O)c1cn(S(=O)(=O)c2ccc(Oc3ccccc3)cc2)c2ccccc12` .
Return: inactive
